Hello, the source for this data is PubChem BioAssay (NCI), in case you need it.

- assay.notes: NCI Yeast Anticancer Drug Screen. Data for the mec2-1 strain (AID 157)
- condition.label: S. cerevisiae mec2-1 strain, stronger effect = higher value; at 50.0 µM unless noted
This is part of a sample that, as a whole, favours compounds with a hit. Of some 79,000 tested, about 15% had one in any assay.
Measured growth inhibition of individual entries
parameter.measured: growth inhibition (%)

[[record]]
compound = "O=C(COc1ccc(Cl)cc1)Nc1cc(Cl)c(Cl)cc1Cl"
test_value = -7.2

[[record]]
compound = "COc1cc(C2c3cc4c(cc3OC(NN=C(C)C)C2C)OCO4)cc(OC)c1O (stereo unspecified)"
test_value = 1.7

[[record]]
compound = "C=CCOc1cc2c(cc1C(CC)c1ccc(OCc3ccccc3)cc1)OCO2 (stereo unspecified)"
test_value = 5.2

[[record]]
compound = "NC(=O)c1ncc(Cl)cc1Cl"
test_value = 2.5

[[record]]
compound = "O=CC(=O)C(O)C(O)C(O)CO (stereo unspecified)"
test_value = 22.9

[[record]]
compound = "C=CCN1C(=O)CS/C1=N/NC(=O)C(O)(c1ccccc1)c1ccccc1"
test_value = -47.7


----------
- assay.notes: NCI Yeast Anticancer Drug Screen. Data for the mlh1 rad18 strain (AID 175)
- condition.label: S. cerevisiae mlh1 rad18 strain growth inhibition, stronger effect = higher value; at 50.0 µM unless noted
Compounds without any hit were thinned out: in the full panel of roughly 79,000, 15% have a hit.
parameter.measured: growth inhibition (%)

[[record]]
compound = "Cc1ccc(NC(=O)Oc2ccc(-c3ccccc3)cc2Br)c(Br)c1"
test_value = 53.7

[[record]]
compound = "O=C1NCC(CCl)O1 (stereo not drawn)"
test_value = 1.9

[[record]]
compound = "COc1ccc(C2=C(c3ccccc3)C(=O)C3(c4ccccc4)CC23c2ccc(OC)cc2)cc1 (stereo not drawn)"
test_value = 4.7

[[record]]
compound = "CC(C)N(C(C)C)S(=O)(=O)c1ccccc1C(O)(c1ccccc1)c1ccccc1"
test_value = 5.9

[[record]]
compound = "Cc1ccc(-c2cc(-c3ccccc3)c(C#N)c(=O)n2C2OC(CO)C(O)C(O)C2O)cc1 (stereo not drawn)"
test_value = 2.95

[[record]]
compound = "C=CCNc1nc(Cl)nc2c1cnn2C"
test_value = -5.15

[[record]]
compound = "O=C1CSC(c2ccccc2Cl)N1N1C(=O)CSC1c1ccccc1Cl (stereo not drawn)"
test_value = 28.1

[[record]]
compound = "CCN(CC)C(=O)c1c(N2CCOCC2)cc(N(CC)CC)oc1=O"
test_value = -40.6

[[record]]
compound = "CC1(C)C2=CC3(C)N(CN2c2ccccc21)c1ccccc1C3(C)C (stereo not drawn)"
test_value = 15.9

[[record]]
compound = "CC1(C)C(=O)C=C(c2ccccc2)C1(O)c1ccccc1 (stereo not drawn)"
test_value = -38.5

[[record]]
compound = "CC(=O)OC1CCC(C(C)(C)C)CC1 (stereo not drawn)"
test_value = -15.8

[[record]]
compound = "Cc1ccc([N+](=O)[O-])cc1NS(=O)(=O)c1cc(Cl)c(Cl)cc1Cl"
test_value = 61.2

[[record]]
compound = "O=C(c1ccccc1)c1ccc2c(c1)N=C(c1ccc(Cl)c(Cl)c1)CC(c1ccc3ccccc3c1)N2 (stereo not drawn)"
test_value = 16.6

[[record]]
compound = "C=C(C)C1CC[C@@](C)(O)[C@H](C#N)C1 (stereo partly drawn)"
test_value = -44

[[record]]
compound = "CC(C)(C)CC(=O)NC1CCCCC1"
test_value = 13.7

[[record]]
compound = "Cc1ccc(CC2CC(=O)NC2=O)cc1 (stereo not drawn)"
test_value = -3.8

[[record]]
compound = "CC1=Nc2cc(Cl)c(Cl)cc2N(C)/C1=C/C1=C(Cl)C(=O)c2cc3c(Cl)ccc(Cl)c3cc2C1=O"
test_value = 20.8

[[record]]
compound = "C=CCCCC1CCCNC1=S (stereo not drawn)"
test_value = 20.9

[[record]]
compound = "CC1C(C)(C)C23CC12C1(OCCO1)C3Br (stereo not drawn)"
test_value = 25.4

[[record]]
compound = "CCOC(=C\\C(=O)NC)/C=C/c1ccc([N+](=O)[O-])cc1"
test_value = -3.45

[[record]]
compound = "CC(=O)Nc1ccc(NC(=O)NCCCCCCNC(=O)Nc2ccc(NC(C)=O)cc2)cc1"
test_value = 5.5

[[record]]
compound = "Cc1cc([N+](=O)[O-])c(Nc2ccc(C)c(Cl)c2)c([N+](=O)[O-])c1"
test_value = 33.6

[[record]]
compound = "CCN(CC)/N=C/c1cc([N+](=O)[O-])ccc1O"
test_value = 15.7

